# ASSAY_OVERVIEW: Growth inhibition of human UO31 cells at 10^-5 M relative to control
# Assay type: functional
# RUN_PARAMETERS: UO-31, values are per cent of control
OUTCOME_MEASURE: growth, % of control at 10 µM
Answer as a quantity: numeral, then unit.

Field: example entries. Status: answers known.
[[record]]
chemical_string = "CN1CCN(c2ncnc3c2ncn3[C@H]2C[C@H]3[C@H](CO)[C@@H]2C[C@@H]3Cl)CC1"
reported_result = "78.5%"

[[record]]
chemical_string = "OC[C@H]1[C@@H]2C[C@H](n3cnc4c(NCCc5ccccc5)ncnc43)[C@H]1C[C@@H]2Cl"
reported_result = "73.8%"

[[record]]
chemical_string = "CN(C)c1ncnc2c1ncn2[C@H]1C[C@@H]2C=C[C@H]1[C@H]2CO"
reported_result = "82.7%"

[[record]]
chemical_string = "Nc1ncnc2c1ncn2[C@H]1C[C@H]2[C@H](CO)[C@@H]1C[C@@H]2Cl"
reported_result = "94.2%"

[[record]]
chemical_string = "OC[C@H]1[C@@H]2C[C@H](n3cnc4c(NC5CCCC5)ncnc43)[C@H]1C[C@@H]2Cl"
reported_result = "99.6%"

[[record]]
chemical_string = "OC[C@H]1[C@@H]2C[C@H](n3cnc4c(N5CCOCC5)ncnc43)[C@H]1C[C@@H]2Cl"
reported_result = "76.9%"

[[record]]
chemical_string = "OC[C@H]1[C@@H]2C[C@H](n3cnc4c(NC5CC5)ncnc43)[C@H]1C[C@@H]2Cl"
reported_result = "85.8%"

[[record]]
chemical_string = "CCN(CC)CCCNc1ncnc2c1ncn2[C@H]1C[C@H]2[C@H](CO)[C@@H]1C[C@@H]2Cl"
reported_result = "80.6%"


Here is the next item to consider.
Query :: # return recorded growth, % of control at 10 µM for input CN(C)c1ncnc2c1ncn2[C@H]1C[C@H]2[C@H](CO)[C@@H]1C[C@@H]2Cl
Result :: 79.1%

---

# Tested on: SR
# ASSAY_OVERVIEW: Growth inhibition of human SR cells at 10^-5 M relative to control
# Assay type: functional
# RUN_PARAMETERS: values are per cent of control
OUTCOME_MEASURE: growth, % of control at 10 µM (%)
Please reply with the bare figure in % and do not write the unit itself.

Query :: Could you please provide reported growth, % of control at 10 µM for OC[C@H]1[C@@H]2C[C@H](n3cnc4c(NC5CC5)ncnc43)[C@H]1C[C@@H]2Cl ? Thanks!
Result :: 86.6

Query :: Provide only the value of recorded growth, % of control at 10 µM for CN(C)c1ncnc2c1ncn2[C@H]1C[C@H]2[C@H](CO)[C@@H]1C[C@@H]2Cl
Result :: 81.4

Query :: Please give the documented growth, % of control at 10 µM of OC[C@H]1[C@@H]2C[C@H](n3cnc4c(N5CCOCC5)ncnc43)[C@H]1C[C@@H]2Cl
Result :: 82.3

Query :: Fill in growth, % of control at 10 µM for record CN1CCN(c2ncnc3c2ncn3[C@H]2C[C@H]3[C@H](CO)[C@@H]2C[C@@H]3Cl)CC1
Result :: 81

---

growth, % of control at 10 µM values for the molecules below.
# Test system: SK-MEL-5
# ASSAY_OVERVIEW: Growth inhibition of human SK-MEL-5 cells at 10^-5 M relative to control
# Assay type: functional
# RUN_PARAMETERS: values are per cent of control
Use % as the unit, but write only the number.

Completed entries (count: 4):
[[record]]
chemical_string = "OC[C@H]1[C@@H]2C[C@H](n3cnc4c(N5CCOCC5)ncnc43)[C@H]1C[C@@H]2Cl"
reported_result = 99.8

[[record]]
chemical_string = "OC[C@H]1[C@@H]2C[C@H](n3cnc4c(NC5CC5)ncnc43)[C@H]1C[C@@H]2Cl"
reported_result = 101

[[record]]
chemical_string = "CCN(CC)CCCNc1ncnc2c1ncn2[C@H]1C[C@H]2[C@H](CO)[C@@H]1C[C@@H]2Cl"
reported_result = 102

[[record]]
chemical_string = "CN(C)c1ncnc2c1ncn2[C@H]1C[C@@H]2C=C[C@H]1[C@H]2CO"
reported_result = 98.3


Query :: Supply growth, % of control at 10 µM measured with SK-MEL-5 for Nc1ncnc2c1ncn2[C@H]1C[C@H]2[C@H](CO)[C@@H]1C[C@@H]2Cl .
Result :: 96.5

Query :: For SK-MEL-5, give the measured growth, % of control at 10 µM of the entry CN1CCN(c2ncnc3c2ncn3[C@H]2C[C@H]3[C@H](CO)[C@@H]2C[C@@H]3Cl)CC1
Result :: 99.4

Query :: Write down the reported growth, % of control at 10 µM (system: SK-MEL-5) of CN(C)c1ncnc2c1ncn2[C@H]1C[C@H]2[C@H](CO)[C@@H]1C[C@@H]2Cl
Result :: 99.5

Query :: State recorded growth, % of control at 10 µM with SK-MEL-5, entry OC[C@H]1[C@@H]2C[C@H](n3cnc4c(NCCc5ccccc5)ncnc43)[C@H]1C[C@@H]2Cl , no comment.
Result :: 73.9

Query :: Recall the reported growth, % of control at 10 µM of OC[C@H]1[C@@H]2C[C@H](n3cnc4c(NC5CCCC5)ncnc43)[C@H]1C[C@@H]2Cl on SK-MEL-5 and write it down.
Result :: 95.7
